B1: library; numbered along this chain (parent)
chain: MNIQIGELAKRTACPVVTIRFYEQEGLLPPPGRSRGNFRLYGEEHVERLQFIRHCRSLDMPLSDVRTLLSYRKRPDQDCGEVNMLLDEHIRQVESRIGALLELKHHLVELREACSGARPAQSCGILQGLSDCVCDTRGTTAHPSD

- Variants of: B1
- measurementNotes: sfGFP reporter fluorescence (15 h) (µM FITC); higher = stronger transcriptional activation
- conditionDescription: library round: Round 0; ligand: 30 µM Zn
Classify by measured sfGFP reporter fluorescence: rule met if it is equal to or exceeds 0.7, rule not met if it is smaller.

Completed entries (count: 3):
>  <mutationNotation>
R39Y

>  <category>
rule not met

$$$$
>  <mutationNotation>
F51A

>  <category>
rule not met

$$$$
>  <mutationNotation>
L28R

>  <category>
rule not met

$$$$

Reported sfGFP reporter fluorescence reaches at least 0.7 for `E7K` ?
rule met

Reported sfGFP reporter fluorescence reaches at least 0.7 for `E81A` ?
rule not met

Reported sfGFP reporter fluorescence reaches at least 0.7 for `D64E` ?
rule not met

Reported sfGFP reporter fluorescence reaches at least 0.7 for `V133A` ?
rule met
